System: U251 CNS
method notes: NCI tumour cell line growth inhibition, 48 h
Known log10(TGI) of a selection of compounds
Scale type: logarithmic (base 10). Underlying TGI unit: µM.

Consider the reported log10(TGI) for these compounds:
>  <compound>
Cc1cc2c(cc1Cl)SC(=Nc1ccc(Cl)cc1)N(S(=O)(=O)c1ccc(Br)s1)S2(=O)=O

>  <meas value>
1.33

$$$$
>  <compound>
O=C(c1ccccc1)c1nc2ccc(Cl)cc2cc1C(Br)Br

>  <meas value>
-0.17

$$$$
>  <compound>
c1ccc(C/C(=N\Nc2nc3ccccc3[nH]2)c2ccccn2)cc1

>  <meas value>
1.09

$$$$
>  <compound>
COc1ccc(C2c3cc4c(cc3OC(N3CCOCC3)C2C)OCO4)cc1OC (centres undefined)

>  <meas value>
1.47

$$$$
>  <compound>
CCCN1CCC(Oc2cc(Nc3nc(Nc4cccc(F)c4C(N)=O)c4cc[nH]c4n3)c(OC)cc2Cl)CC1

>  <meas value>
0.72

$$$$

Return reported log10(TGI). Input compound: Clc1ccc2c(NC3CCC(NC4CCCCC4)CC3)ccnc2c1 (centres undefined)
1.12

Output measured log10(TGI) for this item: `COCCn1c(Nc2ccc(C(=O)NO)cc2)nc2ccccc21`
1.27

Complete the entry with log10(TGI) for CCN1CC2=C(OC(N)=C(C#N)C2c2ccc(Cl)cc2)/C(=C/c2ccc(Cl)cc2)C1 (centres undefined)
1.67

Could you please provide reported log10(TGI) for CN(C)CC1CCC/C(=C\c2ccc(Cl)c(Cl)c2)C1=O (centres undefined) ? Thanks!
0.81

Answer with the recorded log10(TGI) for the compound listed here: `CN(C)CCNc1c(O)c2c(c(O)c1Cl)C(=O)C=CC2=O`
0.57

Write down log10(TGI) measured for item CCCCCCCCCCCCCOCCOCCOCCCCC(O)CCCCCCCCCC1=C[C@H](C)OC1=O (some centres undefined)
1.63

Input `CN1CCN(CCCOC(=O)c2c3c(n4ccccc24)C(=O)c2ncccc2C3=O)CC1` , output reported log10(TGI).
-1.11

Tell us which log10(TGI) value is on record for `CCCCCOC(=O)c1c(C)[nH]c(/C=C2\N=C(c3ccc[nH]3)C=C2OC)c1C`
-0.34

----------
System: HOP-92 NSCLC
method notes: NCI tumour cell line growth inhibition, 48 h
Quick rule: TGI of at least 40 µM means condition met, below that means condition not met.

// below: answered compounds
>  <compound>
CN1CCN(c2ccc3nc(-c4[nH]ncc4Nc4ncnc5[nH]ccc45)[nH]c3c2)CC1

>  <experimental target>
HOP-92 NSCLC

>  <label>
condition not met

$$$$
>  <compound>
Cc1ccc2[nH]c3c(c2c1)C1CCC(C(C)(C)C)CC1C1C(=O)N(c2ccc(Oc4ccccc4)cc2)C(=O)C31 (stereo not drawn)

>  <experimental target>
HOP-92 NSCLC

>  <label>
condition met

$$$$
>  <compound>
CCCN1CCC(Oc2cc(Nc3nc(Nc4cccc(F)c4C(N)=O)c4cc[nH]c4n3)c(OC)cc2Cl)CC1

>  <experimental target>
HOP-92 NSCLC

>  <label>
condition not met

$$$$
>  <compound>
C=CCn1c(SCC(=O)Nc2ccc(C(=O)/C=C/c3cc(OC)c(OC)c(OC)c3)cc2)nnc1-c1cc(OC)c(OC)c(OC)c1

>  <experimental target>
HOP-92 NSCLC

>  <label>
condition met

$$$$
>  <compound>
O=C1c2cccnc2S(=O)(=O)N1c1ccc(Br)cc1

>  <experimental target>
HOP-92 NSCLC

>  <label>
condition met

$$$$
>  <compound>
Cn1c2ccccc2n2c(=O)c(-c3ccc(Cl)cc3)nnc12

>  <experimental target>
HOP-92 NSCLC

>  <label>
condition met

$$$$

Kindly determine if TGI recorded for `Cc1c2ccccc2c(/C=N/NC(=O)CSCC(=O)N/N=C/c2c3ccccc3c(C)c3ccccc23)c2ccccc12` is above or exactly 40 µM.
condition not met
